pIC50: −log10 of the molar value.
Here's a roundup of pIC50 values tested on Histone deacetylase 4 (Homo sapiens, UniProt P56524), taken from various published works.
quantityMeasured: pIC50

| compound | sign | testValue |
| --- | --- | --- |
| Cc1c(F)cccc1[C@]1(C(=O)NO)Cc2cnn(-c3cccc(Cl)c3F)c2C1 | = | 7.77 |
| Cc1c(F)cccc1C1(C(=O)NO)CCc2nc(C3CC3)ncc2C1 (stereo not drawn) | = | 5.80 |
| Cc1cccc(C)c1-n1ncc2c1C[C@](C(=O)NO)(c1cccc(F)c1C)C2 | = | 7.57 |
| Cc1c(F)cccc1[C@]1(C(=O)NO)Cc2cnn(-c3cnccn3)c2C1 | = | 7.42 |
| Fc1ccc(C2(Nc3ncc(-c4nnc(C(F)F)o4)cn3)CC2)c(Cl)c1 | < | 4.52 |
| Fc1ccc(C2(Nc3ncc(-c4nnc(C(F)F)o4)cn3)CC2)cc1 | < | 4.52 |
| Cc1c(F)cccc1[C@]1(C(=O)NO)Cc2cnn(-c3cccc(Cl)c3)c2C1 | = | 7.21 |
| FC(F)c1nnc(-c2ccc(Cn3cnc(-c4ccc(NC5=NCCN5)cc4)c3)cc2)o1 | < | 4.52 |
| Cn1c(N)nc2cc(-c3cn(Cc4ccc(-c5nnc(C(F)F)o5)cc4)nn3)ccc21 | < | 4.52 |
| Nc1ccc(-c2cn(Cc3ccc(-c4nnc(C(F)F)o4)cn3)cn2)cn1 | < | 4.52 |
| O=C(NO)c1ccc(CN(C(=O)N2CCOCC2)c2cccc(C(F)(F)F)c2)cc1 | = | 4.79 |
| Cc1c(F)cccc1[C@@]1(C(=O)NO)Cc2nc(-c3ccnn3C)sc2C1 | = | 7.36 |
| Cc1c(F)cccc1[C@]1(C(=O)NO)Cc2cnn(C3CCCC3)c2C1 | = | 7.43 |
| COc1ccc2c(c1)C(=O)N(CCCCCC(=O)NO)c1ccccc1S2(=O)=O | = | 5.02 |
| Cc1c(F)cccc1[C@]1(C(=O)NO)CCc2nc(-c3ccc(F)cc3)sc21 | = | 6.92 |
| O=C(NO)c1cccc2c1C[C@]1(CCN(Cc3ccc(Cl)c(C(F)(F)F)c3)C1=O)C2 | < | 5.00 |
| Nc1ccc(-c2cnn(Cc3ccc(-c4nnc(C(F)F)o4)cn3)c2)cn1 | < | 4.52 |
| Cc1ccccc1-c1cc(C(=O)NO)n(-c2cccc(F)c2C)n1 | = | 6.12 |
